B1: SOAT1 (parent)
chain: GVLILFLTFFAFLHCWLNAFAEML

Variants of: B1
Test Name: protein stability index of a GFP-peptide fusion (GPS, HEK-293T) (PSI 1-6); higher = more stable;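 note: lentivirally expressed fusions sorted by FACS into six bins by GFP to DsRed ratio, PSI derived from sequencing read proportions per bin multiplied by bin number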
Cond: c terminus: a fixed tail appended
Decide using protein stability index: a value greater than or equal to 3 is Criterion met, a smaller one is Criterion not met.

Completed entries (count: 4):
Primary Sequence: GVLILFLTFFAFLHCWLNAVAEML
Class Name: Criterion met

Primary Sequence: GVLILFLTFFAFLHCWLNAEAEML
Class Name: Criterion not met

Primary Sequence: GVLILFLTFFAFLHCWLCAFAEML
Class Name: Criterion not met

Primary Sequence: GVLILFLTFFAFLHCWLSAFAEML
Class Name: Criterion not met

Task: Could you tell me if the measured protein stability index of `GVLILFATFFAFLHCWLNAFAEML` reaches 3 or more?
Result: Criterion met

Task: Next variant: `GVLILFLTFFAFLHFWLNAFAEML`
Result: Criterion not met

Task: Same thing, different variant: `GVLILFLTFFAFLHCWPNAFAEML`
Result: Criterion not met

Task: Please give the result for `GVLIYFLTFFAFLHCWLNAFAEML` too.
Result: Criterion met

Task: Do the same for `GVLIAFLTFFAFLHCWLNAFAEML` please
Result: Criterion not met

Task: Another variant: `GVLILFLTFFAFLMCWLNAFAEML`
Result: Criterion not met
